Just for reference, patent US9340577B2 is where these values come from.

Target: A31 (A*3101) (Homo sapiens, UniProt P04439, A270S/D185E/E176V/E277Q/F33T/G231S/G80R/H175R/I121M/I218V/I322F/K168Q/L300P/L318F/M331R/P217A/Q94H/R138Q/T323A/T345S/T97I/V358M)
Assay: biochemical
Type: binding
pIC50: −log10 of the molar value. No end group written: not given here.
Reported pIC50 values follow for various sequences

These solved cases illustrate the format of a correct answer.
WFYVQAIVDK [Peptide 88.0140]	< 4.70
MQYVAWKYIY [Peptide 88.0233]	< 4.70

Now look at this entry.
### Prompt Name the recorded pIC50 for FAFTDLTIVY [Peptide 78.0103] .
### Response < 4.70
